- assay target: Serotonin 2 (5-HT2) receptor (Rattus norvegicus, UniProt P30994+P08909+P14842)
- assay protocol: Binding affinity to 5-hydroxytryptamine 2 receptor using [3H]ketanserin radioligand assay.
- Assay type: protein assay
Note to self: Ki under 0.2 µM means Condition met, ties and anything higher get Condition not met.

Check out these entries, answers already filled in.
CCN1CCC=C(c2c[nH]c3ccc(C)cc23)C1; Condition not met
CCN1CCC=C(c2c[nH]c3ccc(Cl)cc23)C1; Condition met
CCCN1CCC=C(c2c[nH]c3ccc(C#N)cc23)C1; Condition not met
CC(=O)c1ccc2[nH]cc(C3=CCCN(C)C3)c2c1; Condition not met
CCCN1CCC=C(c2c[nH]c3ccc(C(N)=O)cc23)C1; Condition not met
CN1CCC=C(c2c[nH]c3ccc(Cl)cc23)C1; Condition met

Prompt line: Please state whether Ki is below 0.2 µM for CN1CC[C@@H]2CCc3[nH]c4ccccc4c3[C@H]2C1
Response line: Condition not met

Prompt line: Please state whether Ki is below 0.2 µM for COc1ccc2[nH]cc(C3=CCCN(C)C3)c2c1
Response line: Condition not met

====

Values of log10 Ki reported for 5-hydroxytryptamine receptor 1A (Rattus norvegicus, UniProt P19327) appear below.
// stored as log10 of Ki expressed in nM

For orientation, consider the following solved cases.
CCN1CCC=C(c2c[nH]c3ccc(Br)cc23)C1; 1.38
CN1CCC=C(c2c[nH]c3ccc(F)cc23)C1; 2.09
CCN1CCC=C(c2c[nH]c3ccc(Cl)cc23)C1; 1.67

// each listed compound needs a value for log10 Ki
1. COc1ccc2[nH]cc(C3=CCCNC3)c2c1
2. CN1CCC=C(c2c[nH]c3ccc(Cl)cc23)C1
3. CCCN1CCC=C(c2c[nH]c3ccc(NC(C)=O)cc23)C1

Response line:
[0.76, 2.05, 2.31]

// each listed compound needs a value for log10 Ki
1. CCCN1CCC=C(c2c[nH]c3ccc(C#N)cc23)C1
2. CN1CCC=C(c2c[nH]c3ccc(O)cc23)C1

Response line:
1. 2.48
2. 2.16

// each listed compound needs a value for log10 Ki
1. CCN1CCC=C(c2c[nH]c3ccc(OC)cc23)C1
2. CCN1CCC=C(c2c[nH]c3ccc(F)cc23)C1

Response line:
1. 1.85
2. 2.15

// each listed compound needs a value for log10 Ki
1. CN1CCC=C(c2c[nH]c3ccccc23)C1
2. CCN1CCC=C(c2c[nH]c3ccc(C#N)cc23)C1
3. CN1CC[C@@H]2CCc3[nH]c4ccccc4c3[C@H]2C1
4. CC(=O)c1ccc2[nH]cc(C3=CCCN(C)C3)c2c1
5. CN1CCC=C(c2c[nH]c3ccc(C(N)=O)cc23)C1
6. CN1CCC=C(c2c[nH]c3ccc(C#N)cc23)C1

Response line:
1. 2.42
2. 2.27
3. 3.37
4. 1.96
5. 0.58
6. 2.11

====

I'd appreciate it if you could supply Ki values for the items below.
- assay target: Serotonin 2 (5-HT2) receptor (Rattus norvegicus, UniProt P30994+P08909+P14842)
- assay protocol: Binding affinity to 5-hydroxytryptamine 2 receptor using [3H]ketanserin radioligand assay.
- Assay type: protein assay
One number for each entry, in nM.

CCN1CCC=C(c2c[nH]c3ccc(OC)cc23)C1; 1130

// each listed compound needs a value for Ki
1. CN1CCC=C(c2c[nH]c3ccc(C#N)cc23)C1
2. CN1CCC=C(c2c[nH]c3ccc(Br)cc23)C1
3. CN1CCC=C(c2c[nH]c3ccc(F)cc23)C1
4. CCCN1CCC=C(c2c[nH]c3ccc(Br)cc23)C1
5. COC(=O)c1ccc2[nH]cc(C3=CCCN(C)C3)c2c1
6. CCN1CCC=C(c2c[nH]c3ccc(C#N)cc23)C1
7. CC(=O)Nc1ccc2[nH]cc(C3=CCCN(C)C3)c2c1

Response line:
1. 1035
2. 82
3. 43
4. 139
5. 5360
6. 1360
7. 14536

Where these numbers come from: ChEMBL document CHEMBL1128098
